Target: human JAK1 (a.a. 837-1142)
Assay: In vitro JAK kinase assay (HTRF, phosphorylation of a biotinylated peptide), JAK1
Type: biochemical
Conditions: measured at 1 mM ATP; JAK2 IC50 / JAK1 IC50
Class key for IC50 Ratio JAK2/JAK1 values: low range: < 6; mid range: ≥ 6 and < 7; high range: ≥ 7

Quick check: band for N#CCC1(n2ccc(-c3ncnc4[nH]ccc34)c2)CN(C2CCN(C(=O)c3cccc(C#N)c3)CC2)C1 high range

Param item: N#CCC1(n2cc(-c3ncnc4[nH]ccc34)cn2)CN(C2CCN(C(=O)C3CCC(F)(F)CC3)CC2)C1 mid range

Param item: N#CCC1(n2cc(-c3ncnc4[nH]ccc34)cn2)CN(C2CCN(C(=O)c3ccc(-c4ccc5ccncc5c4)c(F)c3)CC2)C1 high range

Param item: N#CCC1(n2cc(-c3c(F)cnc4[nH]ccc34)cn2)CN(C2CCN(C(=O)c3ccnc(C(F)(F)F)c3F)CC2)C1 high range

Param item: N#CCC1(n2cc(-c3ncnc4[nH]ccc34)cn2)CN(C2CCN(C(=O)c3ccc(-c4ccc5cccnc5c4)c(F)c3)CC2)C1 mid range

Param item: N#CCC1(n2cc(-c3ncnc4[nH]ccc34)cn2)CN(C2CCN(C(=O)c3cc(F)cc(C(F)(F)F)c3)CC2)C1 mid range

Param item: N#CCC1(n2cc(-c3ncnc4[nH]ccc34)cn2)CN(C2CCN(C(=O)C3CCCCC3)CC2)C1 high range

Param item: COC(=O)c1ccc(NC(=O)N2CCC(N3CC(CC#N)(n4cc(-c5ncnc6[nH]ccc56)cn4)C3)CC2)c(F)c1 low range

Param item: N#CCC1(n2cc(-c3ncnc4[nH]ccc34)cn2)CN(C2CCN(C(=O)c3ccc(O)c(Cl)c3)CC2)C1 mid range

Param item: N#CCC1(n2cc(-c3ncnc4[nH]ccc34)cn2)CN(C2CCN(Cc3cccc(Cl)c3Cl)CC2)C1 low range

Param item: COC(=O)c1cc(F)ccc1NC(=O)N1CCC(N2CC(CC#N)(n3cc(-c4ncnc5[nH]ccc45)cn3)C2)CC1 low range

Param item: N#CCC1(n2cc(-c3ncnc4[nH]ccc34)cn2)CN(C2CCN(Cc3c(F)cccc3Cl)CC2)C1 high range

Param item: N#CCC1(n2cc(-c3ncnc4[nH]ccc34)cn2)CN(C2CCN(C(=O)c3sccc3Cl)CC2)C1 low range

Param item: N#CCC1(n2cc(-c3ncnc4[nH]ccc34)cn2)CN(C2CC3CCC(C2)N3C(=O)c2ccc(C(F)(F)F)nc2)C1 (centres unmarked) low range
